In this section we review reported TI (CC50/IC50) values for a set of compounds.
- Test system: Huh7 cells expressing a subgenomic RNA replicon of Con1 (genotype 1b) sequence origin
measurement label: TI (CC50/IC50)

compound: CNC1CCC(c2ccc(C(F)(F)F)cc2)c2ccccc21 (stereo not shown) [Sertraline B-Ring para-Trifluoromethane]
bound type: =
endpoint value: 1.299
//
compound: CN(C)[C@H]1CC[C@@H](c2ccc(Cl)c(Cl)c2)c2ccccc21 [N,N-Dimethyl Sertraline]
bound type: >
endpoint value: 1.727
//
compound: CN[C@H]1CC[C@@H](c2ccc(Cl)c(Cl)c2)c2ccc(S(=O)(=O)NC)cc21 [Sertraline Sulfonamide]
bound type: =
endpoint value: 1.605
//
compound: CN[C@H]1CC[C@@H](c2ccc(Cl)c(Cl)c2)c2ccc(S(N)(=O)=O)cc21 [Sertraline Sulfonamide NH2]
bound type: >
endpoint value: 2.226
